Tested on: KB-3-1
Assay: Cytotoxic Profiling of Annotated Libraries Using Quantitative High-Throughput Screening (AID 1296008); further: on the % scale 0 is the no-effect control and ±100 the full control effect; nearly all actives have a fitted effect of over 60% in size
Conditions: Five cell lines viability, CellTiter-Glo ATP luminescence, 48-72 h; hits give low values
Records with an inconclusive call do not appear.
property-name: max response (%)
Your answer should be a plain number; it is taken to be in %.

Below, 4 molecules whose answers are already recorded.
molecule="CC(CCc1ccc(O)cc1)O[C@@H]1O[C@H](CO[C@H]2OC[C@](O)(CO)[C@H]2O)[C@@H](O)[C@H](O)[C@H]1O (stereo partly specified)" target_or_test_system=KB-3-1 value=6.77
molecule=O=C/C=C/c1ccccc1 target_or_test_system=KB-3-1 value=17.4
molecule="C#CCN1CC(=O)N(COC(=O)C2C(C=C(C)C)C2(C)C)C1=O (stereo unspecified)" target_or_test_system=KB-3-1 value=-3.38
molecule=O=c1c2ccccc2[se]n1-c1ccccc1 target_or_test_system=KB-3-1 value=-5.46

Here is the next item to consider.
Asked: Field request: max response | item: `Clc1ccc(Cl)cc1`
Given back: 0.597
